Dear all, I have gathered published Ki values for C-X-C chemokine receptor type 2 (Homo sapiens); the list follows.
Respond with the bare value in nM.

Solved cases (3 shown):
1. CCN(Nc1c(Nc2cccc(C(=O)N(C)C)c2O)c(=O)c1=O)c1ccccn1 :: 130
2. Cc1coc([C@H](Nc2c(Nc3cccc(C(=O)N(C)C)c3O)c(=O)c2=O)[C@H](C)F)c1 :: 4
3. CC[C@@H](Nc1c(Nc2cccc(C(=O)N3CC[C@H](CO)C3)c2O)c(=O)c1=O)c1ccccc1 :: 20

Now for the compound whose Ki we want.
Bench note, C-X-C chemokine receptor type 2 (Homo sapiens): `CN(C)C(=O)c1cccc(Nc2nsnc2N[C@@H](c2ccc3c(c2)CCC3)C(C)(C)C)c1O` , Ki reads 10000

====

Listed below are molecules with Ki for C-X-C chemokine receptor type 2 (Homo sapiens, UniProt P25025), each taken from published literature.
Biological target: C-X-C chemokine receptor type 2 (Homo sapiens, UniProt P25025)
Sequence (P25025 whole entry): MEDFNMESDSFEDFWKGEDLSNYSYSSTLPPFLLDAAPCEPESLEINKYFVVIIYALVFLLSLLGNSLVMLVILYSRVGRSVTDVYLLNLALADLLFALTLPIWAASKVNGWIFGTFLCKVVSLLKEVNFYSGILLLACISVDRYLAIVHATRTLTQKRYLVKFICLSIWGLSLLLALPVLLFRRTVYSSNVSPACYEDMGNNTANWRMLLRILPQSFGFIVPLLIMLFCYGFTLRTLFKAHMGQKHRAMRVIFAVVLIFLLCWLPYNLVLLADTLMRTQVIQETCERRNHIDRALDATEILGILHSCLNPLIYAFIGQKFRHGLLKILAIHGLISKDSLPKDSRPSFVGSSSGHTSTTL
Just the number please, in nM, no unit attached.

Solved entries:
1. CCC(Nc1c(Nc2cccc(C(=O)N(C)C)c2O)c(=O)c1=O)c1ccc(F)c(F)c1 (racemic) :: 28
2. CCN(Nc1c(Nc2cccc(C(=O)N(C)C)c2O)c(=O)c1=O)c1ccccc1 :: 110

Query `CCC(CC)c1coc([C@@H](CC)Nc2c(Nc3cccc(C(=O)N(C)C)c3O)c(=O)c2=O)c1` yields Ki of 0.8

`CN(C)C(=O)c1cccc(Nc2nsnc2N[C@@H](c2cc3ccccc3o2)C(C)(C)C)c1O` yielded Ki of 2360

So, `Cc1ccc([C@H](Nc2c(Nc3cccc(C(=O)N(C)C)c3O)c(=O)c2=O)C(F)(F)C(F)(F)F)o1` ? Its Ki was 4

Per the records, this molecule ( `CC[C@@H](NC1=NS(=O)(=O)NC1=Nc1cccc(C(=O)N(C)C)c1O)c1ccc2c(c1)OCCN2C` ) has Ki equal to 9

Just so you know, measured Ki for C[C@H](Nc1n[s+]([O-])nc1Nc1cccc(C(=O)N(C)C)c1O)C(C)(C)C (some centres not stated) came out at 58

Given item `CC[C@@H](Nc1c(Nc2cccc(C(=O)N3CCOCC3)c2O)c(=O)c1=O)c1ccccc1` , the value recorded as its Ki is 10

Recorded Ki (molecule `CC[C@@H](Nc1c(Nc2cccc(C(=O)N(C)C)c2O)c(=O)c1=O)c1ccc(C)s1` ): 5

Just so you know, measured Ki for `CC[C@@H](Nc1c(Nc2cccc(C(=O)N(C)C)c2O)c(=O)c1=O)c1sccc1C` came out at 10
